target-or-system: Calmodulin (Spinacia oleracea) (UniProt P04353)
procedure-details: Binding affinity to spinach calmodulin at 0.033 ug/mL after 1.5 hrs by electrophoretic mobility assay presence of EGTA
Active and inactive are the calls of the source. The calls are words filed in the database; no cut-off is given here.
assay-endpoint: Activity

COc1cc(OC)c2c(O)c3c(c(OC)c2c1)O[C@@H](C)[C@H](C)C3=O ... Active
Cc1cc(O)c2c(c1)C(=O)c1cc(O)cc(O)c1C2=O ... Active
COC(=O)c1ccc(O)cc1 ... Active
CC1=C2C(=CO[C@H](C)[C@H]2C)C(O)=C(C(=O)O)C1=O ... Active
COc1cc(OC)c2c(O)c3c(cc2c1)O[C@@H](C)[C@H](C)C3=O ... Active
COc1cc(OC)c2c(O)c3c(=O)c(C)c(C)oc3cc2c1 ... Active
COc1cc(OC)c2c(O)c3c(c(OC)c2c1)O[C@@H](C)CC3=O ... Active
COc1cc(OC)c2c(O)c3c(=O)cc(C)oc3cc2c1 ... Active

Switching to the query record.
// query Identify the reported Activity for the following entry. `COc1cc(OC)c2c(O)c3c(cc2c1)O[C@@H](C)CC3=O`
// result Active

----------
target-or-system: Calmodulin (Bos taurus) (UniProt P62157)
procedure-details: Binding affinity to bovine brain calmodulin at 0.033 ug/mL after 1.5 hrs by electrophoretic mobility assay in presence of calcium chloride
Calls of active or inactive are those of the source. The calls are words filed in the database; no cut-off is given here.
assay-endpoint: Activity

Known Activity results, listed for orientation:
COc1cc(OC)c2c(O)c3c(cc2c1)O[C@@H](C)CC3=O ... Active
COc1cc(OC)c2c(O)c3c(c(OC)c2c1)O[C@@H](C)CC3=O ... Active
COc1cc(OC)c2c(O)c3c(=O)c(C)c(C)oc3cc2c1 ... Active
COC(=O)c1ccc(O)cc1 ... Active

// query Identify the reported Activity for the following entry. `COc1cc(OC)c2c(O)c3c(=O)cc(C)oc3cc2c1`
// result Active

// query Identify the reported Activity for the following entry. `Cc1cc(O)c2c(c1)C(=O)c1cc(O)cc(O)c1C2=O`
// result Active

// query Identify the reported Activity for the following entry. `CC1=C2C(=CO[C@H](C)[C@H]2C)C(O)=C(C(=O)O)C1=O`
// result Active

// query Identify the reported Activity for the following entry. `COc1cc(OC)c2c(O)c3c(cc2c1)O[C@@H](C)[C@H](C)C3=O`
// result Active

----------
IC50 by entry:
Test system: Amaranthus hypochondriacus
procedure-details: Phytotoxicity against Amaranthus hypochondriacus assessed as inhibition of radicle elongation
Type: functional, organism-based
Give just the number in µM; leave the unit off.

// query Identify the reported IC50 for the following entry. COc1cc(OC)c2c(O)c3c(=O)cc(C)oc3cc2c1 [RUBROFUSARIN B]
// result 13

----------
target-or-system: UniProtKB P62157
procedure-details: Binding affinity to bovine brain calmodulin at 0.033 ug/mL after 1.5 hrs by electrophoretic mobility assay in presence of EGTA
Calls of active or inactive are those of the source. The calls are words filed in the database; no cut-off is given here.
Give one outcome, nothing more. List: active, inactive

COc1cc(OC)c2c(O)c3c(cc2c1)O[C@@H](C)[C@H](C)C3=O ... inactive
COc1cc(OC)c2c(O)c3c(c(OC)c2c1)O[C@@H](C)CC3=O ... inactive
COc1cc(OC)c2c(O)c3c(cc2c1)O[C@@H](C)CC3=O ... inactive
COc1cc(OC)c2c(O)c3c(=O)cc(C)oc3cc2c1 [RUBROFUSARIN B] ... inactive
COC(=O)c1ccc(O)cc1 [METHYLPARABEN] ... inactive

// query Assay outcome for `COc1cc(OC)c2c(O)c3c(=O)c(C)c(C)oc3cc2c1` : what was it?
// result inactive

// query Assay outcome for Cc1cc(O)c2c(c1)C(=O)c1cc(O)cc(O)c1C2=O [EMODIN] : what was it?
// result inactive

// query Assay outcome for `COc1cc(OC)c2c(O)c3c(c(OC)c2c1)O[C@@H](C)[C@H](C)C3=O` : what was it?
// result active

// query Assay outcome for CC1=C2C(=CO[C@H](C)[C@H]2C)C(O)=C(C(=O)O)C1=O [CITRININ] : what was it?
// result inactive
